Experiment: 23°C color optical density (A23): absorbancy difference ε(240)-ε(0) after 240 s light irradiation at 23°C
Type: physicochemical
Conditions: cured product by kneading method, 1 mm, 240 s irradiation
endpoint: A23 (-)

QUERY: Using the record for CCCC1(CCC)c2ccccc2-c2c1c1c(c3cc(OC)c(N4CCOc5ccccc54)cc23)OC(c2ccc(OC)cc2)(c2ccc(OC)cc2)C=C1 , report its A23 (-).
RESULT: 1.34 -

QUERY: Also need CCCOc1ccc(C2(c3ccc(OC)cc3)C=Cc3c4c(c5cc(N(C)c6ccccc6)c(C)cc5c3O2)-c2ccc(C)cc2C4(CCCCOC)CCCCOC)cc1 (centres unmarked) , thanks.
RESULT: 1.09 -

QUERY: Also need CCCC1(CCC)c2ccccc2-c2c1c1c(c3cc(OC)c(N(C)c4ccccc4)cc23)OC(c2ccc(OC)cc2)(c2ccc(OC)cc2)C=C1 , thanks.
RESULT: 1.12 -

Next:
QUERY: Using the record for COc1ccc(C2(c3ccc(OC)cc3)C=Cc3c4c(c5cc(N6CCOc7ccccc76)c(OC)cc5c3O2)-c2ccccc2C4(C)C)cc1 , report its A23 (-).
RESULT: 1.37 -

QUERY: Also need COc1ccc(C2(c3ccc(OC)cc3)C=Cc3c4c(c5cc(N(c6ccccc6)c6ccccc6)c(OC)cc5c3O2)-c2ccccc2C4(C)C)cc1 , thanks.
RESULT: 1.51 -

###

Assay: High-temperature color development rate (A35/A23×100), temperature dependency
Type: physicochemical
Details: photochromic cured product, thickness 1 mm (kneading method)
endpoint: A35/A23 *100 (%)

QUERY: Using the record for CCC1(CC)c2cc(C)ccc2-c2c1c1c(c3cc(C)c(N4CCc5ccccc54)cc23)OC(c2ccc(C)cc2)(c2ccc(OC)cc2)C=C1 (centres unmarked) [Formula (42A)] , report its A35/A23 *100.
RESULT: 76

QUERY: Also need COCCCC1(CCCOC)c2ccccc2-c2c1c1c(c3cc(OC)c(N4CC(C)c5ccccc54)cc23)OC(c2ccc(OC)cc2)(c2ccc(OC)cc2)C=C1 (centres unmarked) [Formula (39A)] , thanks.
RESULT: 76

QUERY: Also need COc1ccc(C2(c3ccc(OC)c(OC)c3)C=Cc3c4c(c5cc(N6CCc7ccccc76)c(OC)cc5c3O2)-c2ccccc2C4(CCC(F)(F)F)CCC(F)(F)F)cc1 (centres unmarked) [Formula (67A)] , thanks.
RESULT: 67

QUERY: Also need CCCOc1ccc(C2(c3ccc(OCCC)cc3)C=Cc3c4c(c5cc(N6CCc7ccccc76)c(OC)cc5c3O2)-c2ccc(-c3ccc(C)cc3)cc2C42CCCCCCC2)cc1 [Formula (35A)] , thanks.
RESULT: 80

QUERY: Also need CCCC1(C)c2cc(Oc3ccccc3)ccc2-c2c1c1c(c3cc(OC)c(N4CCc5ccccc54)cc23)OC(c2ccc(OC)cc2)(c2ccc3c(c2)CCO3)C=C1 (centres unmarked) [Formula (70A)] , thanks.
RESULT: 78

###

Experiment: Maximum absorption wavelength (λmax) after color development, spectrophotometer MCPD3000
Format: physicochemical
Settings: binder sheet (binder method), urethaneurea resin photochromic layer between polycarbonate sheets, 0.25 mmol per 100 parts by mass resin
endpoint: Maximum absorption wavelength (nm)

QUERY: Using the record for CCCOc1ccc(C2(c3ccc(OCCC)cc3)C=Cc3c4c(c5cc(N(CCOC)c6ccccc6)c(OC)cc5c3O2)-c2ccccc2C42CCCCCCC2)cc1 , report its Maximum absorption wavelength (nm).
RESULT: 499

QUERY: Also need COc1ccc(C2(c3ccc(N4CCOCC4)cc3)C=Cc3c4c(c5cc(N6CCOc7ccccc76)c(C)cc5c3O2)-c2ccc(OC)cc2C4(CCCCF)CCCCF)cc1 (stereo not shown) , thanks.
RESULT: 521

QUERY: Also need CCCOc1ccc(C2(c3ccc(OCCC)cc3)C=Cc3c4c(c5cc(N6CCOc7cc(C)ccc76)c(OC)cc5c3O2)-c2ccc(-c3ccc(C(F)(F)F)cc3)cc2C4(CCOC)CCOC)cc1 , thanks.
RESULT: 513

QUERY: Also need CCCC1(CCC)c2ccccc2-c2c1c1c(c3cc(OC)c(N4CCOc5ccccc54)cc23)OC(c2ccc(OC)cc2)(c2ccc(OC)cc2)C=C1 , thanks.
RESULT: 510

The measurements presented in this section are drawn from patent EP4692071A1.
